Entries with reported pKi on Protein kinase C alpha type (Homo sapiens, UniProt P17252)
Units for pKi: none; it is -log10 of a concentration expressed in mol/L.

As a guide, the following entries are already answered.
> print(dat)
                                chem.smiles                            assayed.system  meas.value
1  CCCCCCCCCCOc1cccc2c1C(=O)O[C@@]2(CO)COC(C)=O  Protein kinase C alpha type (Homo sapiens, UniProt P17252)        6.91
2  CCCCCCCCCCCCOc1cccc2c1C(=O)O[C@@]2(CO)COC(=O)C(C)(C)C  Protein kinase C alpha type (Homo sapiens, UniProt P17252)        6.91

# query: pKi of entry `C=CCOC(=O)Oc1cccc2c1C(=O)O[C@]2(CO)COC(C)=O`
6.91
